Test system: SK-MEL-2 melanoma
Assay: NCI tumour cell line growth inhibition, 48 h
MEASURE: TGI (µM)

                                    compound  measure  result_unit  comparison_operator  assay_result
 0  CC(=O)N1c2ccccc2C2=CC3C4C(=O)N(c5ccccc5)C(=O)C4C21C1C(=O)N(c2ccccc2)C(=O)C31 (stereo unspecified)      TGI           µM                    =          56.2
 1             CC1=C(/C=C/C(=O)O)C(C)(C)CCC1      TGI           µM                    >           100
 2   O=S(=O)(N/N=C/c1ccc(Cl)c(Cl)c1)c1ccccc1      TGI           µM                    >           100
 3  COc1ccc(C2CC(c3cccc(Nc4ccncc4)c3)=NN2c2ccc(Cl)cc2)cc1 (stereo unspecified)      TGI           µM                    =          4.28
 4               CCCCCc1nc2c(c3c1CCCC3)CCCC2      TGI           µM                    =          27.4
 5  COc1ccc2c(c1O)C13CCN(C)C(C2)C1CCC1(C3)OCCO1 (stereo unspecified)      TGI           µM                    >           100
 6  CCCCCCCc1cc(OC(=O)c2c(C)cc(OC)cc2O)cc(O)c1C(=O)O      TGI           µM                    =          36.9
 7  CC(C)[C@H]1CC[C@H]2[C@@H](CC[C@H]3[C@](C)(CN)CCC[C@]23C)C1      TGI           µM                    =          5.99
 8  COc1ccc(/C=C/c2sc3ccccc3[n+]2CCCCI)cc1OC      TGI           µM                    =          9.47
 9  N/C(=N\S(=O)(=O)c1cccc2nsnc12)Nc1ccc(Cl)cc1      TGI           µM                    =          26.3
10  CO/C=C(/C(=O)OC)c1ccccc1[C@@H]1CC1c1cccc(F)c1 (stereo partly specified)      TGI           µM                    =          37.4
11  CCN(CC)c1ccc(/C=C2/C[N+](C)(C)C/C(=C/c3ccc(N(CC)CC)cc3)C2=O)cc1      TGI           µM                    =          3.92
12  CC(C)(C)OC(=O)NCC(=O)NC1c2ccsc2/C(=N/O)[C@H]1O (stereo partly specified)      TGI           µM                    >           100
13  CCOC(=O)/C(=N\OC)C(O)C(F)(F)F (stereo unspecified)      TGI           µM                    >           100
14  CSc1nc(NC2OCC(OC(C)=O)C(OC(C)=O)C2OC(C)=O)c(N=C(C)C(C)=O)c(=O)[nH]1 (stereo unspecified)      TGI           µM                    >           100
15     O=c1cc(-c2ccc(O)cc2)n(C2CC2)c2ccccc12      TGI           µM                    =           8.2
16  CC[O-].CC[O-].O=C([CH-]C(=O)c1cccnc1)c1ccccc1.O=C([CH-]C(=O)c1cccnc1)c1ccccc1.[Ti+4]      TGI           µM                    >           100
17                  Nc1nc2sc3ccccc3c(=O)n2n1      TGI           µM                    >           100
18  CC(C)c1c(C(=O)Nc2ccccc2)c(-c2ccccc2)c(-c2ccc(F)cc2)n1CC[C@@H]1CC=CC(=O)O1      TGI           µM                    =          3.43
19  O=C(C[C@H](NC(=O)OCc1ccccc1)C(=O)NC1Cc2ccccc2OC1=O)OCc1ccccc1 (stereo partly specified)      TGI           µM                    >           100
20  COc1ccc(NC(=O)CC(=O)N2N=C(N(CCC#N)c3ccccc3Cl)CC2c2ccccc2)cc1 (stereo unspecified)      TGI           µM                    >           100

====

GI50 by entry:
Tested on: IGROV1 ovarian
Assay: NCI tumour cell line growth inhibition, 48 h
MEASURE: GI50

                                   compound  assay_result
0  O=C1CC(c2cccc(O)c2)C2(C(=O)NC(=S)NC2=O)C(c2cccc(O)c2)C1 (stereo not given)      > 100 µM
1           O=c1c2ccccc2c(Br)c(Br)c2ccccc12       2.37 µM
2     CCCCOc1ccc(NC(=O)n2nc(N)c3ccccc32)cc1         33 µM
3        Clc1cc2c(cc1Cl)Oc1cc(Cl)c(Cl)cc1O2    > 0.625 µM
4  Cc1cc(NCCCNc2ccnc3cc(Cl)ccc23)nc(N2CCN(C)CC2)n1       8.14 µM
5  Cc1ccc(NC(=O)Cc2ccc(/C=C/C(=O)c3ncc[nH]3)cc2)cc1       6.47 µM
6         CN(Cc1ccc(Cl)cc1)c1ccc(CO)c(Cl)c1      0.365 µM
7  COc1ccc(-n2cc(-c3cc(OC)c(OC)c(OC)c3)nc2SCc2ccccc2)cc1      > 100 µM
8               CCCCCc1nc2c(c3c1CCCC3)CCCC2       5.73 µM
9  CCN1/C(=C/C=C/c2n(-c3ccccc3)c3ccc(-c4nc5ccccc5s4)cc3[n+]2CC)N(c2ccccc2)c2ccc(-c3nc4ccccc4s3)cc21       0.75 µM

====

TGI by entry:
Tested on: MDA-MB-435
Assay: NCI tumour cell line growth inhibition, 48 h
MEASURE: TGI

>>> print(df.to_string())
                                   molecule  assay_result
0           C=CCOC(=O)Cn1cc(C)c(=O)[nH]c1=O      > 100 µM
1  COC(=O)[C@H](Cc1ccccc1)NC(=O)N1CCCN(C(=O)N[C@@H](Cc2ccccc2)C(=O)OC)CCCN(C(=O)N[C@@H](Cc2ccccc2)C(=O)OC)CCC1       54.7 µM
2  S=C1Cc2c(-c3ccc(Cl)cc3)cc(-c3ccccc3)nc2-c2ccccc2N1         46 µM
3                  Nc1cc(C(=O)O)[nH]c(=O)n1      > 100 µM
4  Fc1ccc(-c2nn3c(-c4ccc(F)c(Cl)c4)nnc3s2)cc1       > 50 µM
5  Nc1cc2c(nnn2C2OC(COCc3ccccc3)C(OCc3ccccc3)C2OCc2ccccc2)c(=O)[nH]1 (stereo not given)       40.4 µM
6  COc1ccc2c(c1)=C(C=C1C=CN(O)C=C1)C(=O)N=2     > 89.6 µM
7  N#Cc1cccc(OCc2nc(N)nc(N)c2-c2ccc(Cl)c(Cl)c2)c1      > 100 µM
8  O=C1N(c2ccccc2)C2(c3ccccc3)CC3CCCC13S2 (stereo not given)      > 100 µM
9         O=C(O)c1cc(=O)[nH]c(SCc2ccccc2)n1      > 100 µM

====

System: HL-60(TB) leukemia
Assay: NCI tumour cell line growth inhibition, 48 h
MEASURE: TGI

>>> print(df.to_string())
                                    compound  assay_result
 0  C1=Nc2ccc(cc2)N=Cc2ccc(cc2)OCc2cccc(n2)COc2ccc1cc2      > 100 µM
 1  COc1cc(-n2cc(-c3ccc(F)cc3)nc2SCc2ccccc2)cc(OC)c1OC      > 100 µM
 2  CC(C)(C)OC(=O)NCC(=O)NC1c2ccsc2/C(=N/O)[C@H]1O (stereo partly specified)      > 100 µM
 3  N#CC(/C(=N/NC(=O)C(=O)NN)C(=O)Nc1nc([N+](=O)[O-])cs1)c1ccc(Cl)cc1 (stereo unspecified)      > 100 µM
 4  O=C1CS(=O)(=O)C(c2cccc(Oc3ccccc3)c2)N1c1cccc(Cl)c1 (stereo unspecified)      > 100 µM
 5        Clc1cc2c(cc1Cl)Oc1cc(Cl)c(Cl)cc1O2    > 0.625 µM
 6  COc1ccc(-n2cc(-c3cc(OC)c(OC)c(OC)c3)nc2SCc2ccccc2)cc1      > 100 µM
 7  Cc1ccc(NC(=O)Cc2ccc(/C=C/C(=O)c3ncc[nH]3)cc2)cc1       > 25 µM
 8                         CCOCN1COCN=C1NC#N      > 100 µM
 9  OC1(c2ccc(Cl)cc2)c2c(ccc3c2OCO3)C2=NCCN21 (stereo unspecified)      > 100 µM
10  O=C(C=Nc1ccccc1C(=O)[O-])c1cccs1.O=C(C=Nc1ccccc1C(=O)[O-])c1cccs1.[Co+2]      > 100 µM
11  O=C1CCCC2C(O)CCC[C@H]12 (stereo partly specified)      > 100 µM
12  CCCN1CC=C(c2cc(C(=O)OCC)[nH]c2-c2cc(C)no2)C1=O      > 100 µM
13  CCOC(=O)c1sc2ncn(Cc3cccc(Br)c3)c(=O)c2c1C      > 100 µM
14     CCCCOc1ccc(NC(=O)n2nc(N)c3ccccc32)cc1         21 µM
15  Cc1ccc(NP(=O)(Oc2ccccc2)N(CCCl)CCCl)cc1 (stereo unspecified)      > 100 µM
16     CCOc1ccc(-c2cnnn2-c2nonc2-n2cccc2)cc1       13.4 µM
17                  O=Cc1cc([N+](=O)[O-])no1      > 100 µM
18  CCOc1ccc(Nc2nc3c(s2)C(=O)c2ccccc2C3=O)cc1      > 100 µM
19  NC(=O)c1cccc(C2OC(COP(=O)(O)O)C(O)C2O)c1 (stereo unspecified)       > 50 µM
20  CCCCCCCc1cc(OC(=O)c2c(C)cc(OC)cc2O)cc(O)c1C(=O)O       68.3 µM
